# assay_overview: self-splicing fitness, log relative to wild type (ln ratio); higher = more splicing; Tetrahymena group I intron in knt gene, E. coli kanamycin selection, DiMSum; sequences stand for … in CUCUCU…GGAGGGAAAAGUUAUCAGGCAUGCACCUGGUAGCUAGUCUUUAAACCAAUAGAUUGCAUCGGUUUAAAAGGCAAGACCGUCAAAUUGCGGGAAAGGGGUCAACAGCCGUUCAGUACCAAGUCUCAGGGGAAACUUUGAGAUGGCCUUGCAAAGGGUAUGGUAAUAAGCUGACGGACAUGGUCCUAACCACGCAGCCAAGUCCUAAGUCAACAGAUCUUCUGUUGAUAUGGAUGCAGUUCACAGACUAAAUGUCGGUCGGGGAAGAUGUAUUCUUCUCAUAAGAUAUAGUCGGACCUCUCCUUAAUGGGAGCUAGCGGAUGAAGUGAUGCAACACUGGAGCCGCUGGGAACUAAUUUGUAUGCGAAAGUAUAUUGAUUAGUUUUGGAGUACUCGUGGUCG;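 note: selection with 25 µg/mL kanamycin versus none on LB agar overnight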
# assay_conditions: 37 °C
self-splicing fitness (ln) by entry:
readout_label: self-splicing fitness (ln)

[[record]]
sequence_entry = "AAGAAGCAAUAUUACGGUUA"
readout_label = "self-splicing fitness (ln)"
assay_result = -0.983

[[record]]
sequence_entry = "GAGCAGCAAUAUUACGUCAU"
readout_label = "self-splicing fitness (ln)"
assay_result = -1.02

[[record]]
sequence_entry = "GAACAGCAAUAUUACGCUUU"
readout_label = "self-splicing fitness (ln)"
assay_result = -1.93

[[record]]
sequence_entry = "UUCGAGCAAUAUUACGAACA"
readout_label = "self-splicing fitness (ln)"
assay_result = -1.73

[[record]]
sequence_entry = "CGCCAGCAAUAUUACGAUAG"
readout_label = "self-splicing fitness (ln)"
assay_result = 0.155

[[record]]
sequence_entry = "CUCCAGCAAUAUUACGAGCU"
readout_label = "self-splicing fitness (ln)"
assay_result = -2.44

[[record]]
sequence_entry = "CUCAAGCAAUAUUACGCCCU"
readout_label = "self-splicing fitness (ln)"
assay_result = -1.36

[[record]]
sequence_entry = "GCAGAGCAAUAUUACGUGUG"
readout_label = "self-splicing fitness (ln)"
assay_result = -2.63

[[record]]
sequence_entry = "ACCGAGCAAUAUUACGAAGU"
readout_label = "self-splicing fitness (ln)"
assay_result = -1.68

[[record]]
sequence_entry = "GAACAGCAAUAUUACGCGGG"
readout_label = "self-splicing fitness (ln)"
assay_result = -1.37

[[record]]
sequence_entry = "CAAAAGCAAUAUUACGGCCU"
readout_label = "self-splicing fitness (ln)"
assay_result = -1.25

[[record]]
sequence_entry = "UUGGAGCAAUAUUACGUCCA"
readout_label = "self-splicing fitness (ln)"
assay_result = -1.74

[[record]]
sequence_entry = "GACUAGCAAUAUUACGUGAA"
readout_label = "self-splicing fitness (ln)"
assay_result = -0.302

[[record]]
sequence_entry = "CUGGAGCAAUAUUACGUUAA"
readout_label = "self-splicing fitness (ln)"
assay_result = -2.05

[[record]]
sequence_entry = "UGGAAGCAAUAUUACGGCUU"
readout_label = "self-splicing fitness (ln)"
assay_result = -1.73

[[record]]
sequence_entry = "CACCAGCAAUAUUACGGUGU"
readout_label = "self-splicing fitness (ln)"
assay_result = -1.82

[[record]]
sequence_entry = "GUAGAGCAAUAUUACGGUUC"
readout_label = "self-splicing fitness (ln)"
assay_result = -0.825

[[record]]
sequence_entry = "UCAAAGCAAUAUUACGUGUC"
readout_label = "self-splicing fitness (ln)"
assay_result = -1.69

[[record]]
sequence_entry = "UUACAGCAAUAUUACGGACU"
readout_label = "self-splicing fitness (ln)"
assay_result = -1.9

[[record]]
sequence_entry = "AUGGAGCAAUAUUACGGUCU"
readout_label = "self-splicing fitness (ln)"
assay_result = -2.04

[[record]]
sequence_entry = "GUAAAGCAAUAUUACGUUUC"
readout_label = "self-splicing fitness (ln)"
assay_result = -1.03

[[record]]
sequence_entry = "GCUCAGCAAUAUUACGAUGG"
readout_label = "self-splicing fitness (ln)"
assay_result = 0.368

[[record]]
sequence_entry = "AAGUAGCAAUAUUACGCGUG"
readout_label = "self-splicing fitness (ln)"
assay_result = -0.191

[[record]]
sequence_entry = "ACAGAGCAAUAUUACGGGUA"
readout_label = "self-splicing fitness (ln)"
assay_result = -3

[[record]]
sequence_entry = "UUGGAGCAAUAUUACGGGCG"
readout_label = "self-splicing fitness (ln)"
assay_result = -2.13

[[record]]
sequence_entry = "GAUAAGCAAUAUUACGUAUU"
readout_label = "self-splicing fitness (ln)"
assay_result = -1.78

[[record]]
sequence_entry = "CCUGAGCAAUAUUACGUGUG"
readout_label = "self-splicing fitness (ln)"
assay_result = -1.18

[[record]]
sequence_entry = "GGUAAGCAAUAUUACGGGGG"
readout_label = "self-splicing fitness (ln)"
assay_result = -3.13

[[record]]
sequence_entry = "GUAUAGCAAUAUUACGACAA"
readout_label = "self-splicing fitness (ln)"
assay_result = -1.34

[[record]]
sequence_entry = "GAACAGCAAUAUUACGGAUA"
readout_label = "self-splicing fitness (ln)"
assay_result = -1.28

[[record]]
sequence_entry = "GAGGAGCAAUAUUACGUGAG"
readout_label = "self-splicing fitness (ln)"
assay_result = -2.22

[[record]]
sequence_entry = "GUCUAGCAAUAUUACGUUAC"
readout_label = "self-splicing fitness (ln)"
assay_result = -0.771

[[record]]
sequence_entry = "GCGUAGCAAUAUUACGGUAG"
readout_label = "self-splicing fitness (ln)"
assay_result = -2.03

[[record]]
sequence_entry = "CGGCAGCAAUAUUACGCGGA"
readout_label = "self-splicing fitness (ln)"
assay_result = -2.7

[[record]]
sequence_entry = "CGCGAGCAAUAUUACGCGCU"
readout_label = "self-splicing fitness (ln)"
assay_result = -1.67

[[record]]
sequence_entry = "CCCGAGCAAUAUUACGUUGU"
readout_label = "self-splicing fitness (ln)"
assay_result = -2.73

[[record]]
sequence_entry = "CAUUAGCAAUAUUACGAUGC"
readout_label = "self-splicing fitness (ln)"
assay_result = -3.61

[[record]]
sequence_entry = "AGACAGCAAUAUUACGUCCU"
readout_label = "self-splicing fitness (ln)"
assay_result = -0.257

[[record]]
sequence_entry = "AGGAAGCAAUAUUACGCGUC"
readout_label = "self-splicing fitness (ln)"
assay_result = -2.24

[[record]]
sequence_entry = "CAUAAGCAAUAUUACGAUAG"
readout_label = "self-splicing fitness (ln)"
assay_result = 0.232

